The reported measurements were obtained from paper PMC4965013.

- Tested on: P. falciparum 3D7, HB3, Dd2, W2, K1, FCR3
- METHOD SUMMARY: Asexual EC50 image assay, six strains, Ayong
- Type: cell-based
- APPLIED CONDITIONS: Plasmodium falciparum; read-out: P. falciparum HB3 asexual blood stage EC50 (Image) Ayong
MEASURED PROPERTY: pEC50
Reminder that pEC50 is minus the log10 of a molar concentration.

[ask] Entry COc1cc2cc(C(=O)Nc3ccccc3)c(N)nc2cc1OC [MMV006767] has what pEC50?
[reply] 6.09

[ask] Entry C[C@@H]1CC[C@H]2[C@@H](C)C(=O)O[C@@H]3O[C@@]4(C)CC[C@@H]1[C@]32OO4 [Artemisinin, reference compound] has what pEC50?
[reply] 8.07
